Quick list: IC50 per entry.
# Target under test: CDK12/CyclinK (Homo sapiens, UniProt Q9NYV4)
# Sequence (Q9NYV4 whole entry): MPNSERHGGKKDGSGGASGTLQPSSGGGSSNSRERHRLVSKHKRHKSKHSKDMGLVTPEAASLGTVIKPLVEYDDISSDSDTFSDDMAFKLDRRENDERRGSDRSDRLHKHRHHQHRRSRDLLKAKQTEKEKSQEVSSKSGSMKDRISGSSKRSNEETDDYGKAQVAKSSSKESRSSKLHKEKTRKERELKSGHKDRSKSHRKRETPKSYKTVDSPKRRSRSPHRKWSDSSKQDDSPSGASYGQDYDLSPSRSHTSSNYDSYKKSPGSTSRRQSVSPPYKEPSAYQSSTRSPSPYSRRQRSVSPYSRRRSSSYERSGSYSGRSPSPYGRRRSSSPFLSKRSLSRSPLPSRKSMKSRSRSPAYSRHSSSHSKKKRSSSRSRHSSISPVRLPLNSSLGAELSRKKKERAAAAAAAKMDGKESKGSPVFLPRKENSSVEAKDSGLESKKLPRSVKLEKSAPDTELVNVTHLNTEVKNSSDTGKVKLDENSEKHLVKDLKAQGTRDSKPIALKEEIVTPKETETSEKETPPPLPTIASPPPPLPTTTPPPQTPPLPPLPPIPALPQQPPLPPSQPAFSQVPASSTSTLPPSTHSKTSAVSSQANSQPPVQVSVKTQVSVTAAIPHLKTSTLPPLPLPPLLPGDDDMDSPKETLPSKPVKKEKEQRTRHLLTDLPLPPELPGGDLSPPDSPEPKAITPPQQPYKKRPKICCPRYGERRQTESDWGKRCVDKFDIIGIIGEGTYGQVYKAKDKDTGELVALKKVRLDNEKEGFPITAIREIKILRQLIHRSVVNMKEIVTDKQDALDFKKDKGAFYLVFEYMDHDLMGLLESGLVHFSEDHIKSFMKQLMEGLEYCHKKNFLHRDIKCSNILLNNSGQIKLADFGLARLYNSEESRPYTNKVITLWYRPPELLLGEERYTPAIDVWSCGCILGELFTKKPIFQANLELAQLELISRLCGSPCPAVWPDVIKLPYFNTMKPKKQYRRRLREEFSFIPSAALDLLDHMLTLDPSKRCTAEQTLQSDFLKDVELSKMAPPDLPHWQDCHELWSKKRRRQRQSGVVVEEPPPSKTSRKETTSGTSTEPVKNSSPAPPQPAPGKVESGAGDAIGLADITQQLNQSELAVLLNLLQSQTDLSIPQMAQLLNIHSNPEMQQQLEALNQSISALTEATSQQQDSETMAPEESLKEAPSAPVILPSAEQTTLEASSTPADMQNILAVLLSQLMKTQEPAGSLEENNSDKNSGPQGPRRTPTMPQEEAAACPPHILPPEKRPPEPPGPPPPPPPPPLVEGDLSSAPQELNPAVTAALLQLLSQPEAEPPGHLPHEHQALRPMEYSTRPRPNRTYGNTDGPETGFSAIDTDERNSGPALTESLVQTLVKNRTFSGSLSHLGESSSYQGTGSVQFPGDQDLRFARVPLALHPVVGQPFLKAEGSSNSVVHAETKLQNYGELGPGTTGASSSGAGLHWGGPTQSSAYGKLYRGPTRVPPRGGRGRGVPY
# Sequence (O75909 whole entry partner): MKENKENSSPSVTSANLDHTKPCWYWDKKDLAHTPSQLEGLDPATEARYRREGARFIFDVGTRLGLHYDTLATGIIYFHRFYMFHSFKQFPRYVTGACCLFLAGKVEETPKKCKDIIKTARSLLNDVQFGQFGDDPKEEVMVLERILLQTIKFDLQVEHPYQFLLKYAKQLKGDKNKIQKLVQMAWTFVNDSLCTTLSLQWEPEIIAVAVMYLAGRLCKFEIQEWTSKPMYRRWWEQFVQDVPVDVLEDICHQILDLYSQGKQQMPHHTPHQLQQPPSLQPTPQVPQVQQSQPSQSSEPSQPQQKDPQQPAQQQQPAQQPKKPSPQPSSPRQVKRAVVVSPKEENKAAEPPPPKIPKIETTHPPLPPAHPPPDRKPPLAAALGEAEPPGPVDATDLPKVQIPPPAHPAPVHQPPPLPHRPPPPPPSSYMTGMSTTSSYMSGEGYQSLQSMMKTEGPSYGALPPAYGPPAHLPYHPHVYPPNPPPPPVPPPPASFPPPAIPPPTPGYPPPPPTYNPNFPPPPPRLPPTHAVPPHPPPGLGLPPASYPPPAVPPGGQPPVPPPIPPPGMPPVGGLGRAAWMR
# Method: In vitro CDK12/cyclinK kinase assay
# Assay type: biochemical
# Design: purchased Reaction Biology Corp. (CRO that ran the assay)
# Assay conditions: Tables 1-4; read-out: CDK12/CyclinK (IC50/μM)
The answer is to be given in µM; state only the numeric part.

CC(C)n1cnc2c(NCc3ccc(-c4cccnc4)nc3)nc(-c3ccccc3NCCCO)nc21 [Compound 20b] :: 3.01
CC(C)n1cnc2c(NCc3ccc(-c4cccnc4)nc3)nc(-c3ccc(F)nc3)nc21 [Compound 21a] :: 0.147

Then this compound:
API: value(readout=IC50, system=CDK12/CyclinK (Homo sapiens, UniProt Q9NYV4)) for record CC(C)n1cnc2c(NCc3ccc(-c4cccnc4)nc3)nc(-c3ccccc3N)nc21 [Compound 19a] 0.619

---

# Target under test: CYP1A2 (Homo sapiens, UniProt P05177)
# Sequence (P05177 1-516): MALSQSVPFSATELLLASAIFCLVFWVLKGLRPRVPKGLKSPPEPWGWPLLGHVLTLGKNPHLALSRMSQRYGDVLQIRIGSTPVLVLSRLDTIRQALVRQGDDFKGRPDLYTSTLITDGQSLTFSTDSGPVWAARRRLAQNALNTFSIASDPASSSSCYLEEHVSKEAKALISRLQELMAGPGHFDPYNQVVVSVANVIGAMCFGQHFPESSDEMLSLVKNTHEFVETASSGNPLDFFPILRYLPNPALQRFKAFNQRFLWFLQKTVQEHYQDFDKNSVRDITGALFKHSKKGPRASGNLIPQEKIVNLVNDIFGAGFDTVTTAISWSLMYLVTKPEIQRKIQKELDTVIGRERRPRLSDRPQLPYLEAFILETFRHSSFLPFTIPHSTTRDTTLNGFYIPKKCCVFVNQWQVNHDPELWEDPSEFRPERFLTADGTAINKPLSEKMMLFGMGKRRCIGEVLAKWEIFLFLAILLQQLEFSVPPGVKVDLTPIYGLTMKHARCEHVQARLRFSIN
# Method: CYP inhibition
# Type: in vitro ADME
Quick list: CYP % Activity at 10 μM 1A2 per entry.
The answer is to be given in %; state only the numeric part.

CCn1cnc2c(NCc3ccc(-c4ccnc(C)c4)nc3)nc(-c3cncnc3)nc21 [Compound 30c] :: 68.6

Consider the compound shown here: CCn1cnc2c(NCc3ccc(-c4ccnc(C)c4)nc3)nc(-c3cnc(N)nc3)nc21 [Compound 30b] What is its recorded CYP % Activity at 10 μM 1A2? 74.9

Another compound to check: CCn1cnc2c(NCc3ccc(-c4ccccn4)nc3)nc(-c3cnc(N)nc3)nc21 [Compound 30e] 87.6

Another compound to check: CCn1cnc2c(NCc3ccc(-c4ccccn4)nc3)nc(-c3ccc(N)nc3)nc21 [Compound 30d] 74.7

Another compound to check: CCn1cnc2c(NCc3ccc(-c4ccnc(C)c4)nc3)nc(-c3ccc(N)nc3)nc21 [Compound 30a] 59.3

---

# Target under test: CYP2C9 (Homo sapiens)
# Sequence (P11712 whole entry): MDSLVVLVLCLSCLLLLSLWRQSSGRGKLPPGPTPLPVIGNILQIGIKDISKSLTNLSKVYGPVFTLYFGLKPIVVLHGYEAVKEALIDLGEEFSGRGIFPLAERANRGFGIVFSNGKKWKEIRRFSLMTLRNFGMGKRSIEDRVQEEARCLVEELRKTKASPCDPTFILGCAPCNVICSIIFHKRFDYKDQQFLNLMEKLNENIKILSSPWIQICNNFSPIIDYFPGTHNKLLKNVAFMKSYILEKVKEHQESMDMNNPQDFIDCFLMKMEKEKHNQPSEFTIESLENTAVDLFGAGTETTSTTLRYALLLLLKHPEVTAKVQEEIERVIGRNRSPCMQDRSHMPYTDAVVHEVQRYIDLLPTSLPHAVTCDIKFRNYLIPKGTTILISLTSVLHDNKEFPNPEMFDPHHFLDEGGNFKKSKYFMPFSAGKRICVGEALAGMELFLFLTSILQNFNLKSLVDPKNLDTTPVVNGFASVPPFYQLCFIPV
# Method: CYP inhibition
# Type: in vitro ADME
Metric name: CYP % Activity at 10 μM 2C9 (%)
The answer is to be given in %; state only the numeric part.

Consider the compound shown here: CCn1cnc2c(NCc3ccc(-c4ccccn4)nc3)nc(-c3cnc(N)nc3)nc21 [Compound 30e] What is its recorded CYP % Activity at 10 μM 2C9? 81.6

Another compound to check: CCn1cnc2c(NCc3ccc(-c4ccnc(C)c4)nc3)nc(-c3ccc(N)nc3)nc21 [Compound 30a] 73.0

Another compound to check: CCn1cnc2c(NCc3ccc(-c4ccnc(C)c4)nc3)nc(-c3cnc(N)nc3)nc21 [Compound 30b] 82.9

Another compound to check: CCn1cnc2c(NCc3ccc(-c4ccnc(C)c4)nc3)nc(-c3cncnc3)nc21 [Compound 30c] 67.5

Another compound to check: CCn1cnc2c(NCc3ccc(-c4ccccn4)nc3)nc(-c3ccc(N)nc3)nc21 [Compound 30d] 57.9

---

# Target under test: CDK12/CyclinK (Homo sapiens, UniProt Q9NYV4)
# Method: In vitro CDK12/cyclinK kinase assay
# Format: biochemical
# Parameters: purchased Reaction Biology Corp. (CRO that ran the assay)
# Assay conditions: Table 5; means and standard deviations from three independent assays; read-out: CDK12/CyclinK (IC50/μM)
Quick list: IC50 per entry.
The answer is to be given in µM; state only the numeric part.

CCn1cnc2c(NCc3ccc(-c4ccnc(C)c4)nc3)nc(-c3cnc(N)nc3)nc21 [Compound 30b] :: 0.028
CCn1cnc2c(NCc3ccc(-c4ccccn4)nc3)nc(-c3cnc(N)nc3)nc21 [Compound 30e] :: 0.085

Consider the compound shown here: CCn1cnc2c(NCc3ccc(-c4ccccn4)nc3)nc(-c3ccc(N)nc3)nc21 [Compound 30d] What is its recorded IC50? 0.021

---

# Target under test: CYP2D6 (Homo sapiens)
# Sequence (P10635 whole entry): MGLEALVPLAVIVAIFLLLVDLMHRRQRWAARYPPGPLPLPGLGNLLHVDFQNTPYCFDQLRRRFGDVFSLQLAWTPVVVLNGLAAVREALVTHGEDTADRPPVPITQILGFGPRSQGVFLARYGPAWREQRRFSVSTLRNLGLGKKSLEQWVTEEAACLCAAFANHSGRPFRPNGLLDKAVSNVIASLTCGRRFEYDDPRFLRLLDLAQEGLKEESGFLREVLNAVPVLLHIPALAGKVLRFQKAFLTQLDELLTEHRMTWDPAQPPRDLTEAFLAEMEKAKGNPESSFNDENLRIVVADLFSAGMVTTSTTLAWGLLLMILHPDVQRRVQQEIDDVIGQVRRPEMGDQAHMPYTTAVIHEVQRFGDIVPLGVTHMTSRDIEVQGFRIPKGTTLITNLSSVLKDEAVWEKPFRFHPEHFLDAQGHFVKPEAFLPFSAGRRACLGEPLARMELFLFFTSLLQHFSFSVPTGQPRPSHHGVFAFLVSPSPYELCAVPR
# Method: CYP inhibition
# Format: in vitro ADME
Metric name: CYP % Activity at 10 μM 2D6 (%)
The answer is to be given in %; state only the numeric part.

CCn1cnc2c(NCc3ccc(-c4ccnc(C)c4)nc3)nc(-c3cncnc3)nc21 [Compound 30c] :: 88.8
CCn1cnc2c(NCc3ccc(-c4ccccn4)nc3)nc(-c3ccc(N)nc3)nc21 [Compound 30d] :: 81.0
CCn1cnc2c(NCc3ccc(-c4ccnc(C)c4)nc3)nc(-c3ccc(N)nc3)nc21 [Compound 30a] :: 89.6
CCn1cnc2c(NCc3ccc(-c4ccccn4)nc3)nc(-c3cnc(N)nc3)nc21 [Compound 30e] :: 92.1

Consider the compound shown here: CCn1cnc2c(NCc3ccc(-c4ccnc(C)c4)nc3)nc(-c3cnc(N)nc3)nc21 [Compound 30b] What is its recorded CYP % Activity at 10 μM 2D6? 85.7

---

# Target under test: CDK12/CyclinK (Homo sapiens)
# Method: In vitro CDK12/cyclinK kinase assay
# Assay type: biochemical
# Design: purchased Reaction Biology Corp. (CRO that ran the assay)
# Assay conditions: Tables 1-4; read-out: CDK12/CyclinK (IC50/μM)
Quick list: IC50 per entry.

Worked set:
CC(C)n1cnc2c(NCc3ccc(-c4cccnc4)nc3)nc(-c3ccc(C(N)=O)cc3)nc21 [Compound 18c] :: 0.484 µM
CC(C)n1cnc2c(NCc3ccc(-c4cccnc4)nc3)nc(-c3ccnc(NCCO)c3)nc21 [Compound 22c] :: 0.086 µM
CC(C)n1cnc2c(NCc3ccc(-c4cccnc4)nc3)nc(-c3ccc4[nH]ncc4c3)nc21 [Compound 18f] :: 0.104 µM
CC(C)n1cnc2c(NCc3ccc(-c4cccnc4)nc3)nc(-c3ccnc(F)c3)nc21 [Compound 21b] :: 0.164 µM
CC(C)n1cnc2c(NCc3ccc(-c4cccnc4)nc3)nc(-c3ccccc3NCCO)nc21 [Compound 20a] :: 0.799 µM
CC(C)n1cnc2c(NCc3ccc(-c4ccccn4)cn3)nc(-c3cccnc3)nc21 [Compound 17a] :: 0.433 µM
Cc1cc(-c2ccc(CNc3nc(-c4cccnc4)nc4c3ncn4C(C)C)nc2)ccn1 [Compound 17e] :: 0.481 µM
CC(C)n1cnc2c(NCc3ccc(-c4ccncc4)cn3)nc(-c3cccnc3)nc21 [Compound 17d] :: 0.627 µM
CC(C)n1cnc2c(NCc3ccc(-c4cccnc4)nc3)nc(-c3cn[nH]c3)nc21 [Compound 18n] :: 1.43 µM
Cc1cc(N)n(-c2nc(NCc3ccc(-c4cccnc4)nc3)c3ncn(C(C)C)c3n2)n1 :: 2.35 µM

Consider the compound shown here: CC(C)n1cnc2c(NCc3ccc(-c4cccnc4)nc3)nc(-c3ccccc3)nc21 [Compound 18a] What is its recorded IC50? 0.623 µM

Another compound to check: CC(C)n1cnc2c(NCc3ccc(-c4cccnc4)nc3)nc(-c3ccnc(N)c3)nc21 [Compound 18j] 0.094 µM

Another compound to check: CC(C)n1cnc2c(NCc3ccc(-c4cccnc4)nc3)nc(-c3cccc(C(N)=O)c3)nc21 [Compound 18b] 0.504 µM

Another compound to check: CC(C)n1cnc2c(NCc3ccc(-c4cccnc4)nc3)nc(-c3ccc(N)nc3)nc21 [Compound 18i] 0.065 µM

Another compound to check: CC(C)n1cnc2c(NCc3ccc(-c4cccnc4)nc3)nc(-c3cccc(N)c3)nc21 [Compound 19b] 0.17 µM

Another compound to check: CC(C)n1cnc2c(NCc3ccc(-c4ccncc4)nc3)nc(-c3cccnc3)nc21 [Compound 17g] 0.153 µM

---

# Target under test: CDK12/CyclinK (Homo sapiens, UniProt Q9NYV4)
# Method: In vitro CDK12/cyclinK kinase assay
# Assay type: biochemical
# Design: purchased Reaction Biology Corp. (CRO that ran the assay)
# Assay conditions: read-out: CDK12/cyclinK IC50
# Protocol: In vitro CDK12/cyclinK assays for all compounds and in vitro kinome-wide inhibition profiling of 30d at 10 μM were performed by a CRO company (Reaction Biology Corp., San Diego, CA, USA).
pIC50: −log10 of the molar value.
Metric name: pIC50

CC(C)n1cnc2c(NCc3ccc(-c4cccnc4)nc3)nc(-c3ccc(N)nc3)nc21 [Compound 18i] :: > 7.00
CCn1cnc2c(NCc3ccc(-c4ccnc(C)c4)nc3)nc(-c3ccc(N)nc3)nc21 [Compound 30a] :: > 7.52
CC(C)n1cnc2c(NCc3ccc(-c4cccnc4)nc3)nc(-c3ccnc(N)c3)nc21 [Compound 18j] :: > 7.00
CC(C)n1cnc2c(NCc3ccc(-c4cccnc4)nc3)nc(-c3cnc(N)nc3)nc21 [Compound 18l] :: > 7.00
CCn1cnc2c(NCc3ccc(-c4ccnc(C)c4)nc3)nc(-c3cnc(N)nc3)nc21 [Compound 30b] :: > 7.52

Consider the compound shown here: CCn1cnc2c(NCc3ccc(-c4cccnc4)nc3)nc(-c3cccnc3)nc21 [Compound 28a] What is its recorded pIC50? > 7.52

Another compound to check: CC(C)n1cnc2c(NCc3ccc(-c4cccnc4)nc3)nc(-c3cncnc3)nc21 [Compound 18k] > 7.00

Hey, just so you know, these numbers are from paper PMC9506414.
